Ref: ChEMBL document CHEMBL4689842

Test system: HEK-293T
Assay: Multiplex assay against HEK293T
Type: toxicity, cell-based
Conditions: human, 24 h, 1 µM, compound concentration 1 uM, replicate 2
Entries get a class label from measured Population Pyknosed Nuclei (%). See ranges: low group = under 10%, middle group = from 10% up to 40%, high group = 40% and over

CCOC(=O)CCNc1cc(N2CCc3ccccc3CC2)nc(-c2ccccn2)n1 :: low group

Query: Entry NC(=O)c1ccc2nc(-c3ccc(C4(N)CCC4)cc3)c(-c3ccccc3)n2n1 [BAY-1125976] belongs to which category?
Response: low group

Query: Entry Cc1c(P(=S)(c2ccccc2)c2ccccc2)n2ccccc2[n+]1C/C=C/c1ccccc1.[Br-] belongs to which category?
Response: high group

Query: Entry CCCc1cc(C)[nH]c(=O)c1CNC(=O)c1cc(-c2ccc(N3CCN(C(C)C)CC3)nc2)cc2c1cnn2C(C)C belongs to which category?
Response: high group

Query: Entry C=CC(=O)Nc1cc(-n2c(=O)ccc3cnc4ccc(-c5ccc(NS(C)(=O)=O)cc5)cc4c32)ccc1C belongs to which category?
Response: middle group

Query: Entry CC(C)[C@H](CO)Nc1nc(Nc2cccc(Cl)c2)c2ncn(C(C)C)c2n1 [PURVALANOLA] belongs to which category?
Response: middle group

* * *

Test system: Fibroblast
Assay: Incucyte cell viability with human fibroblast; further: filed as whole numbers so only -1 and 0 and 1 occur
Format: toxicity, cell-based
Conditions: 6 h, 10 µM, compound concentration 10 uM, replicate number 1, timepoint 6 hours
VALUE TYPE: Growth Rate
Just the number, please.

CN(c1cc(C(F)(F)F)nc(OCCC(=O)O)n1)c1cccc2c1CCC2 :: 0

Query: Entry CCC(=O)NC1Cc2ccccc2C(c2ccccc2)C1 (centres undefined) : reported Growth Rate = ?
Response: 0

Query: Entry C[C@@H](N)Cc1c[nH]cn1.Cl.Cl : reported Growth Rate = ?
Response: 0

Query: Entry CCc1cc(Nc2nccc(-c3c(-c4ccc(OC)c(C(=O)Nc5c(F)cccc5F)c4)nc4ccccn34)n2)c(OC)cc1N1CCC(N2CCN(S(C)(=O)=O)CC2)CC1 : reported Growth Rate = ?
Response: 1

Query: Entry c1ccc(-c2oc3ncnc(NC[C@@H]4CCCO4)c3c2-c2ccccc2)cc1 : reported Growth Rate = ?
Response: 0

Query: Entry CCCc1cc(C)[nH]c(=O)c1CNC(=O)c1cc(-c2ccc(N3CCN(C(C)C)CC3)nc2)cc2c1cnn2C(C)C : reported Growth Rate = ?
Response: 0

* * *

Reported values of Population Apoptotic (%) for individual entries
Tested on: HEK-293T
Test: Multiplex assay against HEK293T
Type: toxicity, cell-based
Conditions: human, 12 h, 10 µM, compound concentration 10 uM, replicate 1
The answer should read as a number with its unit following.

Recorded results for 3 compounds are shown here.
CCOc1ccn(-c2ccc(F)cc2)c(=O)c1C(=O)Nc1ccc(Oc2ccnc(N)c2Cl)c(F)c1 [BMS-777607] :: 23%
CC(/C=C1\SC(=S)N(CCCC(=O)Nc2ccc(C(=O)O)c(O)c2)C1=O)=C\c1ccccc1 :: 40%
CC[C@@H]1C(=O)N(C)c2cnc(Nc3ccc(C(=O)NC4CCN(C)CC4)cc3OC)nc2N1C1CCCC1 [BI-2536] :: 32%

Query: Entry Cl.NC[C@@H]1O[C@H](C23CC4CC(CC(C4)C2)C3)Cc2c1ccc(O)c2O : reported Population Apoptotic (%) = ?
Response: 60%

* * *

Reported values of Population Pyknosed Nuclei (%) for individual entries
Test system: Fibroblast
Test: Multiplex assay against human fibroblast
Type: toxicity, cell-based
Details: 12 h, 10 µM, compound concentration 10 uM, replicate 1
Numbers only; they are read as %.

Cc1ccc(NC(=O)Nc2cc(C(F)(F)F)ccc2F)cc1Nc1ccc2c(c1)NC(=O)/C2=C\c1ccc[nH]1 :: 32
CC(C)[C@H](CO)Nc1nc(Nc2cccc(Cl)c2)c2ncn(C(C)C)c2n1 [PURVALANOLA] :: 36

From here, focus on the item given below.
Query: Give Population Pyknosed Nuclei (%) (Fibroblast) of the following molecule: Cl.NC[C@@H]1O[C@H](C23CC4CC(CC(C4)C2)C3)Cc2c1ccc(O)c2O
Response: 28

* * *

System: Fibroblast
Experiment: Multiplex assay against human fibroblast
Type: toxicity, cell-based
Settings: 12 h, 1 µM, compound concentration 1 uM, replicate 1
VALUE TYPE: Population Pyknosed Nuclei (%)
Numbers only; they are read as %.

Recorded results for 2 compounds are shown here.
CC[C@@H]1C(=O)N(C)c2cnc(Nc3ccc(C(=O)NC4CCN(C)CC4)cc3OC)nc2N1C1CCCC1 :: 11
Cc1ccc(NC(=O)Nc2cc(C(F)(F)F)ccc2F)cc1Nc1ccc2c(c1)NC(=O)/C2=C\c1ccc[nH]1 :: 27

Query: Entry C=CC(=O)Nc1cc(-n2c(=O)ccc3cnc4ccc(-c5ccc(NS(C)(=O)=O)cc5)cc4c32)ccc1C : reported Population Pyknosed Nuclei (%) = ?
Response: 29

Query: Entry Cl.Cn1c2c(c3ccc(Cl)c(Cl)c31)C(C#N)C1(CCNCC1)NC2=O (centres undefined) : reported Population Pyknosed Nuclei (%) = ?
Response: 13

* * *

Reported values of Population Tubulin-Different-Phenotype (%) for individual entries
System: Fibroblast
Experiment: Multiplex assay against human fibroblast
Type: toxicity, cell-based
Conditions: 48 h, 10 µM, compound concentration 10 uM, replicate 1
Numbers only; they are read as %.

Recorded results for 4 compounds are shown here.
N#Cc1cccc(C(=O)Nc2cc(-c3ccccc3)nn2-c2ccccc2)c1 :: 95
CN1CCN(Cc2ccc(-c3cnc4[nH]cc(-c5ccc6[nH]ccc6c5)c4c3)cc2)CC1 :: 58
CCCc1cc(C)[nH]c(=O)c1CNC(=O)c1cc(-c2ccc(N3CCN(C(C)C)CC3)nc2)cc2c1cnn2C(C)C :: 68
CC(C)[C@H](CO)Nc1nc(Nc2cccc(Cl)c2)c2ncn(C(C)C)c2n1 [PURVALANOLA] :: 92

Query: Give Population Tubulin-Different-Phenotype (%) (Fibroblast) of the following compound: c1ccc(-c2oc3ncnc(NC[C@@H]4CCCO4)c3c2-c2ccccc2)cc1
Response: 95

Query: Give Population Tubulin-Different-Phenotype (%) (Fibroblast) of the following compound: CC(Cc1ccc(O)c(O)c1)C(C)Cc1ccc(O)c(O)c1 (centres undefined) [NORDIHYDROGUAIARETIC ACID]
Response: 0

Query: Give Population Tubulin-Different-Phenotype (%) (Fibroblast) of the following compound: C=CC(=O)Nc1cc(-n2c(=O)ccc3cnc4ccc(-c5ccc(NS(C)(=O)=O)cc5)cc4c32)ccc1C
Response: 56

Query: Give Population Tubulin-Different-Phenotype (%) (Fibroblast) of the following compound: CC(/C=C1\SC(=S)N(CCCC(=O)Nc2ccc(C(=O)O)c(O)c2)C1=O)=C\c1ccccc1
Response: 54

Query: Give Population Tubulin-Different-Phenotype (%) (Fibroblast) of the following compound: CCCCN(CC)c1nc(C)nc2c1c(C)cn2-c1c(C)cc(C)cc1C.Cl
Response: 60

* * *

Tested on: U2OS
Experiment: Multiplex assay against U2OS
Type: toxicity, cell-based
Settings: human, 24 h, 1 µM, compound concentration 1 uM, replicate 2
VALUE TYPE: Population Fragmented Nuclei (%)
Numbers only; they are read as %.

Recorded results for 2 compounds are shown here.
CS(=O)(=O)N1CCCC(NC(=O)[C@H](CCC2CCCCC2)NC(=O)c2ccc(CNC(=O)c3cnc4ccccn34)cc2)C1 (stereo partly drawn) [SR-302] :: 7
CC(C)[C@H](CO)Nc1nc(Nc2cccc(Cl)c2)c2ncn(C(C)C)c2n1 [PURVALANOLA] :: 8

Query: Entry CCOC(=O)CCNc1cc(N2CCc3ccccc3CC2)nc(-c2ccccn2)n1 : reported Population Fragmented Nuclei (%) = ?
Response: 8

* * *

Tested on: U2OS
Assay: Multiplex assay against U2OS
Format: toxicity, cell-based
Details: human, 12 h, 10 µM, compound concentration 10 uM, replicate 2
VALUE TYPE: Population Pyknosed Nuclei (%)
Numbers only; they are read as %.

Query: Entry Cc1c(Nc2ccc(S(=O)(=O)N3CCN(C)CC3)cc2F)nc2ccc(Nc3cnn(C4CC4)c3)cn2c1=O : reported Population Pyknosed Nuclei (%) = ?
Response: 7

Query: Entry CN1C(=O)[C@@H](NC(=O)c2cc3ccccc3[nH]2)N=C(c2ccccc2)c2ccccc21 [DEVAZEPIDE] : reported Population Pyknosed Nuclei (%) = ?
Response: 5

Query: Entry CC(Cc1ccc(O)c(O)c1)C(C)Cc1ccc(O)c(O)c1 (stereo not drawn) [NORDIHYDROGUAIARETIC ACID] : reported Population Pyknosed Nuclei (%) = ?
Response: 5

Query: Entry C=CC(=O)Nc1cc(-n2c(=O)ccc3cnc4ccc(-c5ccc(NS(C)(=O)=O)cc5)cc4c32)ccc1C : reported Population Pyknosed Nuclei (%) = ?
Response: 36

Query: Entry CC(/C=C1\SC(=S)N(CCCC(=O)Nc2ccc(C(=O)O)c(O)c2)C1=O)=C\c1ccccc1 : reported Population Pyknosed Nuclei (%) = ?
Response: 10

Query: Entry CC[C@@H]1C(=O)N(C)c2cnc(Nc3ccc(C(=O)NC4CCN(C)CC4)cc3OC)nc2N1C1CCCC1 : reported Population Pyknosed Nuclei (%) = ?
Response: 9

Query: Entry CCCc1cc(C)[nH]c(=O)c1CNC(=O)c1cc(-c2ccc(N3CCN(C(C)C)CC3)nc2)cc2c1cnn2C(C)C : reported Population Pyknosed Nuclei (%) = ?
Response: 38

Query: Entry CC(C)c1cc(Nc2nc(N3CCC[C@H](N)C3)ncc2C(N)=O)cc(C(C)C)n1 : reported Population Pyknosed Nuclei (%) = ?
Response: 48
